# TARGET_OR_SYSTEM: PI3Kβ (Homo sapiens)
# Sequence (P42338 whole entry, species assumed): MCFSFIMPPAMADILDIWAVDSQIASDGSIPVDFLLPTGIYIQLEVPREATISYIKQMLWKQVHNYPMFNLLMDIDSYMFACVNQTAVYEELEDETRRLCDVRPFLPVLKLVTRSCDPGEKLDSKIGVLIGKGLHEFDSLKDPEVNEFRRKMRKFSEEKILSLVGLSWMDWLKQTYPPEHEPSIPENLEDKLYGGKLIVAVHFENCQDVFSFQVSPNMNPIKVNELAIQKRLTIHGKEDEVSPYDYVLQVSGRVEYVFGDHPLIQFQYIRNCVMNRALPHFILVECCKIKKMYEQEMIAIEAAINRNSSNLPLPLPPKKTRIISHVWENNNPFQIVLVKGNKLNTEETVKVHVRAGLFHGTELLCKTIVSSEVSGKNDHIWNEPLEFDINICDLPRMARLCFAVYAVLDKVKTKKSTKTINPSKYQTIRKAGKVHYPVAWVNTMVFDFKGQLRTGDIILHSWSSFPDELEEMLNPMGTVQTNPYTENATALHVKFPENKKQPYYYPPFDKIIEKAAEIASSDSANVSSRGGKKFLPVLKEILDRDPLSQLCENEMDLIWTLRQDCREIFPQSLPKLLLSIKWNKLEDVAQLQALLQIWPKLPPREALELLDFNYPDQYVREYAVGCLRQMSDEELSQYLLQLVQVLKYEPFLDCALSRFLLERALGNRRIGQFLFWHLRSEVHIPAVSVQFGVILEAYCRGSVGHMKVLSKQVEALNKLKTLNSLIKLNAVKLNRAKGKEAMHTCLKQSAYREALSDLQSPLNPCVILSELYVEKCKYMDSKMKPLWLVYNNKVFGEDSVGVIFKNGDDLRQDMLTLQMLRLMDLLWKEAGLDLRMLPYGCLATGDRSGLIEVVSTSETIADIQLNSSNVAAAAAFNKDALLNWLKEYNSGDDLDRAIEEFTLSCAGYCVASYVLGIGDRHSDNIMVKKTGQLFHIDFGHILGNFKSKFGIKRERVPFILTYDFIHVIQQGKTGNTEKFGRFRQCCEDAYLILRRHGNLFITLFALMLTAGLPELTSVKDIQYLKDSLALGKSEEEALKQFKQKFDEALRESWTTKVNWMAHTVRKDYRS
# Sequence (P27986 whole entry partner, species assumed): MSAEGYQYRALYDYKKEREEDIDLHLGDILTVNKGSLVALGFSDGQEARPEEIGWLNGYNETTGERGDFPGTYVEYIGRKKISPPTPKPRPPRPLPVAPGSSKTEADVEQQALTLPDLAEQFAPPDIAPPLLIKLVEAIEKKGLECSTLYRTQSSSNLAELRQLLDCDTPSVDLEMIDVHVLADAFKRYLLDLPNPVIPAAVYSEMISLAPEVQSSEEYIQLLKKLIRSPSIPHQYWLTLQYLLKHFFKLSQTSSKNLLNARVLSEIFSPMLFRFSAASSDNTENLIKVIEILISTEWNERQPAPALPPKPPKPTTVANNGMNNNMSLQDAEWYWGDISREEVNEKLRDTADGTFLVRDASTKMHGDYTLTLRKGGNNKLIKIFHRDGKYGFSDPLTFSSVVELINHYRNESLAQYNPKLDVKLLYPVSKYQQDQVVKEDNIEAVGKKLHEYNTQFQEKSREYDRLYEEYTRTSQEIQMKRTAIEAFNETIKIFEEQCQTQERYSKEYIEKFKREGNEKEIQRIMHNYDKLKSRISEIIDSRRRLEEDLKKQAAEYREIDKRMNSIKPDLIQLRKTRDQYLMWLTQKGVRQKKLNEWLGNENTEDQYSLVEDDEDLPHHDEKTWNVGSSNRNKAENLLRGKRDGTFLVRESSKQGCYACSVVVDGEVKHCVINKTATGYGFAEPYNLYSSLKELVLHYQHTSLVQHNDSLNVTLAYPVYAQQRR
# TEST_PROTOCOL: In vitro inhibition of PI3Kβ
# Assay type: biochemical
# MEASUREMENT_SETUP: Table 10B, inhibitory activity, unit inferred; read-out: PI3Kβ
PROPERTY_MEASURED: IC50 (nM)
Give your result in nM as a bare value.

Bench note: what IC50 did CN(C)C1CCN(C(=O)c2ccc(NC(=O)Nc3ccc(-c4nc(N5CCOCC5)nc(N5CCN(C(=O)CCOCCOCCOCCONC(=O)c6ccc(F)c(F)c6Nc6ccc(I)cc6F)CC5)n4)cc3)cc2)CC1 [ST-185] show?
1620

Okay, next one:
Endpoint output: IC50 of O=C(NOCCOCCOCCOCCC(=O)N1CCN(c2nc(N3CCOCC3)nc(-n3c(C(F)F)nc4ccccc43)n2)CC1)c1ccc(F)c(F)c1Nc1ccc(I)cc1F [ST-168] . Value?
1480

====

# TEST_PROTOCOL: Tissue concentration partitioning (plasma, mesenteric lymph node, fat) after single oral dose in Maisine, LC-MS/MS
# Format: in vivo
# MEASUREMENT_SETUP: mouse, mesenteric lymph node; mice, single oral 10 mg in Maisine, 4 hours post-dosing; read-out: lymphatic concentration
PROPERTY_MEASURED: concentration at 4 h

Reported concentration at 4 h for "O=C(NCCOCCOCCOCCNC(=O)c1ccccc1)c1ccccc1" : what is it?
~85 ng/mL

====

# TEST_PROTOCOL: Plasma and lymphatic tissue levels after single oral dose of ST-168 or PD901, LC-MS/MS (FIG. 3)
# Type: in vivo
# MEASUREMENT_SETUP: lymphatic tissue / plasma; mouse, single oral dose in ORA-Plus suspension, 4 hours post-administration; read-out: lymphatic/plasma ratio
PROPERTY_MEASURED: Kp at 4 h

For O=C(NOC[C@H](O)CO)c1ccc(F)c(F)c1Nc1ccc(I)cc1F [Compound 901, reference compound] , what is its reported Kp at 4 h?
~1.2

Next:
What value of Kp at 4 h has been recorded for this entry: "O=C(NOCCOCCOCCOCCC(=O)N1CCN(c2nc(N3CCOCC3)nc(-n3c(C(F)F)nc4ccccc43)n2)CC1)c1ccc(F)c(F)c1Nc1ccc(I)cc1F"
~120

====

# TARGET_OR_SYSTEM: PI3Kα (Homo sapiens, UniProt P42336)
# Sequence (P42336 whole entry, species assumed): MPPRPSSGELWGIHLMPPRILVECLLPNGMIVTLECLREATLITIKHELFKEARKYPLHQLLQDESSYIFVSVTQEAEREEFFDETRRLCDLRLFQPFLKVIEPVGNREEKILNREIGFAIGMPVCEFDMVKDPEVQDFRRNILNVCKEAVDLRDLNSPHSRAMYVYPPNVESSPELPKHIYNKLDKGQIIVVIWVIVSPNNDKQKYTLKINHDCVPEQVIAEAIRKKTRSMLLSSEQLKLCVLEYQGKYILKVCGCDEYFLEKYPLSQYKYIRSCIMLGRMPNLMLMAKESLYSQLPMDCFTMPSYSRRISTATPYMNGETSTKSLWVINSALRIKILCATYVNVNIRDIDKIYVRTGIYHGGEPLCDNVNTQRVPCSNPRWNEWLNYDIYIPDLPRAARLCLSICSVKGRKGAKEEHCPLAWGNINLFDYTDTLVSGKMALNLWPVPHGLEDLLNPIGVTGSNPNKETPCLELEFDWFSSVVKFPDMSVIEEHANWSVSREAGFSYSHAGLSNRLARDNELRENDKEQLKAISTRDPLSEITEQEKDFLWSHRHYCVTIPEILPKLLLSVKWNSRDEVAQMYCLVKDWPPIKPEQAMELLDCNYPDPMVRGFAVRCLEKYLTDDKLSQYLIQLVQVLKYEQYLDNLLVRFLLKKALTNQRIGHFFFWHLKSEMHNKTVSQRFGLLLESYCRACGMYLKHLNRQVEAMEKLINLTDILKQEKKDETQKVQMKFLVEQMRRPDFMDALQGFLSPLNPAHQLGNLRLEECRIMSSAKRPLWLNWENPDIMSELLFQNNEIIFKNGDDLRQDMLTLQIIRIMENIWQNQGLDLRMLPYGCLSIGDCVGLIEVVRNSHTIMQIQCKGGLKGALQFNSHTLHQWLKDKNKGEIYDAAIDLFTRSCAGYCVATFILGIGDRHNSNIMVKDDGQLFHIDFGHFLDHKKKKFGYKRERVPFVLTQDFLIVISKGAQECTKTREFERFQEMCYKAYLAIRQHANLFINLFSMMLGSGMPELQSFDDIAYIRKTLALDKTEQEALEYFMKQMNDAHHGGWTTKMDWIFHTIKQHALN
# Sequence (P27986 whole entry partner, species assumed): as the sequence (P27986 whole entry partner, species assumed) above
# TEST_PROTOCOL: In vitro inhibition of PI3Kα
# Format: biochemical
# MEASUREMENT_SETUP: Table 10B, inhibitory activity, unit inferred; read-out: PI3Kα
PROPERTY_MEASURED: pIC50
# pIC50 = -log10(concentration in molar units)

# annotated cases, reported pIC50 shown
Write down the reported pIC50 of CN(C)C1CCN(C(=O)c2ccc(NC(=O)Nc3ccc(-c4nc(N5CCOCC5)nc(N5CCN(C(=O)CCOCCOCCOCCONC(=O)c6ccc(F)c(F)c6Nc6ccc(I)cc6F)CC5)n4)cc3)cc2)CC1 [ST-185] , test system: PI3Kα (Homo sapiens, UniProt P42336).
7.37

Repeat with O=C(NOCCOCCOCCOCCN1CCN(c2nc(N3CCOCC3)nc(-n3c(C(F)F)nc4ccccc43)n2)CC1)c1ccc(F)c(F)c1Nc1ccc(I)cc1F [ST-162]
6.72

More entries:
Request body: readout pIC50, system PI3Kα (Homo sapiens, UniProt P42336), query O=C(NOCCOCCOCCOCCC(=O)N1CCN(c2nc(N3CCOCC3)nc(-n3c(C(F)F)nc4ccccc43)n2)CC1)c1ccc(F)c(F)c1Nc1ccc(I)cc1F [ST-168] . Return the value.
7.16
